Tested on: OVCAR-5 ovarian
PROCEDURE_SUMMARY: NCI tumour cell line growth inhibition, 48 h
MEASURED_PARAMETER: GI50

Look up GI50: "O=c1[nH]c(=O)c2cn[nH]c2[nH]1"
> 100 µM

Look up GI50: "O=C(CCCCCCNC(=O)c1cnc(N(c2ccccc2)c2ccccc2)nc1)NO"
3.14 µM

Look up GI50: CC(=O)NC1C(OC[C@@H](CC(=O)N[C@@H](CC(=O)O)CC(=O)N[C@H](CC(=O)N[C@@H](CCCN)CC(=O)N[C@@H](CCCN)CC(=O)N[C@H](CC(N)=O)C(C)C)C(C)C)NC(=O)C[C@@H](N)C(C)C)OC(CO)C(O)C1O (stereo not given in full)
> 100 µM

Look up GI50: "COc1cc(/C=C\c2cc(OC)c(OC)c(OC)c2)cc(NC(=O)/C=C/c2cc(OC)c(OC)c(OC)c2)c1OC"
> 100 µM

Look up GI50: "O=C(Oc1cccc(F)c1OC(=O)c1cccc(O)c1)c1cccc(O)c1"
> 100 µM

Look up GI50: "CCCCON(OC(=O)c1ccc2ccccc2c1)C(=O)c1ccccc1"
> 100 µM

Look up GI50: C=C(C)C(O)CCC1(C)C=Cc2c(c(C)cc3c2[nH]c2ccccc23)O1 (stereo not given)
2.11 µM

Look up GI50: "COc1ccc(C(=S)N2CCN(c3cccc(C)c3)CC2)cc1OC"
> 100 µM

Look up GI50: "Clc1nc(Cl)c2ncn(CC3(Cn4cnc5c(Cl)nc(Cl)nc54)COC3)c2n1"
0.634 µM

Look up GI50: "CCOC(=O)/C(C=Nc1ccc(-c2nc3ccccc3[nH]2)cc1)=C(/C)O"
17.1 µM

Look up GI50: "Cc1cc2c(cc1C)[n+](Cc1ccc3ccccc3c1)cn2Cc1ccc2ccccc2c1"
1.13 µM

Look up GI50: "COC12C=C/C(=C(/C(=O)OCc3cncnc3)C(=O)CCCCCCCCC3(OC)C=C/C(=C(/C(=O)OCc4cncnc4)C(=O)CCCCCCCC1)O3)O2"
0.783 µM

Look up GI50: "COc1cccc(N2CCN(CC(=O)N3CCN(c4nnc(-c5ccc(Cl)cc5)c(-c5ccc(Cl)cc5)n4)CC3)CC2)c1"
> 100 µM

Look up GI50: "N.N.N.N.N.NC(=O)c1nn[n-]n1.[Cl-].[Co+3]"
> 100 µM

Look up GI50: "CCOC(=O)Nc1ccc2c(c1)/C(=N\NC(N)=S)c1ccccc1-2"
16.8 µM

Look up GI50: "CC[C@@H]1c2c(C#N)ncn2-c2cnc(Nc3ccc(C(=O)NC4CCN(C5CCN(CC6CC6)CC5)CC4)cc3OC)nc2N1C1CCCC1"
0.0449 µM

Look up GI50: "C=C(CN1C(=O)CN(C)C1=O)c1ccc(C(=O)Nc2ccccc2N)cc1"
3.56 µM

Look up GI50: "C=CCN=c1sc2c(n1NC(=O)c1cc3ccc1CCc1ccc(cc1)CC3)C(=O)c1ccccc1C2=O"
2.03 µM

Look up GI50: "C=C1C(=O)O[C@H]2[C@H]1CC/C(COC(=O)CSCSCC(=O)OC/C1=C/CC[C@@]3(C)O[C@H]3[C@H]3OC(=O)C(=C)[C@@H]3CC1)=C\CC[C@@]1(C)O[C@@H]21"
1.95 µM

Look up GI50: C/C=C(\C)C(=O)NC1=CC[C@@]2(C)C(=CCC3C2CC[C@@]2(C)C3CC[C@@H]2C(C)N(C)C)C1=O (stereo not given in full)
4.78 µM

====

Test system: SNB-75 CNS
PROCEDURE_SUMMARY: NCI tumour cell line growth inhibition, 48 h
MEASURED_PARAMETER: TGI (µM)
Report as a plain number; the unit µM is understood.

Look up TGI: C=C(C)C(O)CCC1(C)C=Cc2c(c(C)cc3c2[nH]c2ccccc23)O1 (centres undefined)
9.8

Look up TGI: "CCN(CC)c1c(C(=O)/C=C/c2ccc(Cl)cc2)c(-c2ccccc2)nn(C)c1=O"
7.5

Look up TGI: "N#Cc1ccc(OCc2nc(N)nc(N)c2-c2ccc(Cl)c(Cl)c2)cc1"
29.1

Look up TGI: "COc1ccc2[nH]cc(-c3ccc(-c4c[nH]c5ccc(OC)cc45)s3)c2c1"
19.5

Look up TGI: "O=c1c2ccccc2nc(-c2cc3c(cc2Cl)Sc2nccn2S3(=O)=O)n1-c1ccccc1"
52.2

Look up TGI: "O=C1C(Cl)=C(Nc2cccc(Cl)c2)C(=O)N1Cc1ccc(Cl)cc1"
14.6

Look up TGI: "O=[N+]([O-])c1c(F)c(F)c2c(c1F)Nc1ccccc1S2"
32.6

Look up TGI: "COc1ccc2nc3cc(Cl)ccc3c(NCCNC(=O)Cn3c(=O)n(C)c(=O)c4c3nc3c(c(=O)n(C)c(=O)n3C)[n+]4[O-])c2c1"
92.2

Look up TGI: CCN1CCC(O)(c2ccc(Oc3ccccc3)cc2)C(C(=O)c2ccc(Oc3ccccc3)cc2)C1 (centres undefined)
28.9

Look up TGI: "C[C@]12CC[C@@H]3c4ccc(OC(=O)N(CCCl)CCCl)cc4CC[C@H]3[C@@H]1CC[C@@H]2O"
15.1

Look up TGI: "O=[N+]([O-])C(=C(Nc1ccccc1)Nc1ccccc1)/C(Cl)=C(\Cl)[N+](=O)[O-]"
22.4

Look up TGI: "N#CN=[N+]([O-])c1ccc(C(=O)O)cc1"
38.9

Look up TGI: "N=C1C(c2nc3ccccc3s2)=C(O)CN1c1ccc(F)c(Cl)c1"
51.4

Look up TGI: "COC12C=C/C(=C(/C(=O)OCc3cncnc3)C(=O)CCCCCCCCC3(OC)C=C/C(=C(/C(=O)OCc4cncnc4)C(=O)CCCCCCCC1)O3)O2"
6.84

Look up TGI: "CC(=O)c1ccc2c(c1)c1c(C)c3c[n+](C)ccc3c(C)c1n2C"
57.1

Look up TGI: C[C@]12C[C@H](CCCCCCNCCOC(=O)NCCCc3ccc(N(CCCl)CCCl)cc3)C3=C4CCC(=O)C=C4CCC3C1CC[C@@H]2O (some centres undefined)
2.91

Look up TGI: "COc1cccc(N2CCN(CC(=O)N3CCN(c4nnc(-c5ccc(Cl)cc5)c(-c5ccc(Cl)cc5)n4)CC3)CC2)c1"
52.9

====

I'd be grateful if you could share measured log10 of TGI for these entries.
Test system: UACC-62 melanoma
PROCEDURE_SUMMARY: NCI tumour cell line growth inhibition, 48 h
Parameter value (number): base-10 log of TGI in µM.

Look up log10 of TGI: "C=CCN=c1sc2c(n1NC(=O)c1cc3ccc1CCc1ccc(cc1)CC3)C(=O)c1ccccc1C2=O"
0.59

Look up log10 of TGI: "CN(CCO)CC[C@H](CSc1ccccc1)Nc1ccc(S(=O)(=O)NC(=O)c2ccc(N3CCC([C@@H](O)c4ccccc4-c4ccc(Cl)cc4)CC3)cc2)cc1S(=O)(=O)C(F)(F)F"
0.62

Look up log10 of TGI: "C=C1C(=O)O[C@@H]2C[C@@H](C)[C@@H]3C=CC(=O)[C@@]3(C)[C@@H](O)[C@H]12"
0.74

Look up log10 of TGI: "O=C1C(Cl)=C(Nc2cccc(F)c2)C(=O)N1Cc1ccc(Cl)cc1"
0.39

Look up log10 of TGI: C=C(C)C(O)CCC1(C)C=Cc2c(c(C)cc3c2[nH]c2ccccc23)O1 (centres undefined)
1.04

Look up log10 of TGI: "O=[N+]([O-])C(=C(Nc1ccccc1)Nc1ccccc1)/C(Cl)=C(\Cl)[N+](=O)[O-]"
1.27

Look up log10 of TGI: "COc1cc(C(=O)/C=C/c2ccc(OCC#N)cc2)cc(OC)c1OC"
1.69

Look up log10 of TGI: "Cc1cccc(/C=C/c2c(C(=O)/C=C/c3ccccc3)c(C)nc3ccccc23)c1"
0.50

====

Test system: CCRF-CEM leukemia
PROCEDURE_SUMMARY: NCI tumour cell line growth inhibition, 48 h; in the data active = GI50 below about 0.43 µM; inactive = the rest
Your response should consist of one outcome taken from Yes for active, No for inactive

Just curious, what result did "C[C@]12CC[C@@H]3c4ccc(OC(=O)N(CCCl)CCCl)cc4CC[C@H]3[C@@H]1CC[C@@H]2O" get here?
No

Just curious, what result did "CN(CCO)CC[C@H](CSc1ccccc1)Nc1ccc(S(=O)(=O)NC(=O)c2ccc(N3CCC([C@@H](O)c4ccccc4-c4ccc(Cl)cc4)CC3)cc2)cc1S(=O)(=O)C(F)(F)F" get here?
Yes

Just curious, what result did "COc1ccc(C(=S)N2CCN(c3cccc(C)c3)CC2)cc1OC" get here?
No

Just curious, what result did "C=CCN=c1sc2c(n1NC(=O)c1cc3ccc1CCc1ccc(cc1)CC3)C(=O)c1ccccc1C2=O" get here?
No

Just curious, what result did "C=C1C(=O)O[C@H]2[C@H]1CC/C(CNC(=O)/C=C/c1cc(OC)c(OC)c(OC)c1)=C\CC[C@@]1(C)O[C@@H]21" get here?
No

Just curious, what result did "COc1ccc(-c2nn(-c3cccc(Cl)c3)cc2-c2cc(-c3cccs3)[nH]c(=S)n2)cc1" get here?
No

Just curious, what result did "C=C(CN1C(=O)CN(C)C1=O)c1ccc(C(=O)Nc2ccccc2N)cc1" get here?
No

Just curious, what result did "NS(=O)(=O)c1ccc(-n2nc(-c3ccc(Cl)cc3)cc2-c2cc(O)ccc2O)cc1" get here?
No

Just curious, what result did "COc1ccc(/C=C/C(=O)c2cc(OC)c(OC)c(OC)c2)cc1OCc1cn(Cc2ccc(F)cc2)nn1" get here?
No

Just curious, what result did "CCN(Cc1ccc(Cl)cc1)c1ccc(CO)c(Cl)c1" get here?
No

Just curious, what result did CC(=O)NC1C(OC[C@@H](CC(=O)N[C@@H](CC(=O)O)CC(=O)N[C@H](CC(=O)N[C@@H](CCCN)CC(=O)N[C@@H](CCCN)CC(=O)N[C@H](CC(N)=O)C(C)C)C(C)C)NC(=O)C[C@@H](N)C(C)C)OC(CO)C(O)C1O (some centres not stated) get here?
No

Just curious, what result did "CCCCON(OC(=O)c1ccc2ccccc2c1)C(=O)c1ccccc1" get here?
No
